# target.system: Large neutral amino acids transporter small subunit 1 (Homo sapiens, UniProt Q01650)
# Sequence (Q01650 whole entry): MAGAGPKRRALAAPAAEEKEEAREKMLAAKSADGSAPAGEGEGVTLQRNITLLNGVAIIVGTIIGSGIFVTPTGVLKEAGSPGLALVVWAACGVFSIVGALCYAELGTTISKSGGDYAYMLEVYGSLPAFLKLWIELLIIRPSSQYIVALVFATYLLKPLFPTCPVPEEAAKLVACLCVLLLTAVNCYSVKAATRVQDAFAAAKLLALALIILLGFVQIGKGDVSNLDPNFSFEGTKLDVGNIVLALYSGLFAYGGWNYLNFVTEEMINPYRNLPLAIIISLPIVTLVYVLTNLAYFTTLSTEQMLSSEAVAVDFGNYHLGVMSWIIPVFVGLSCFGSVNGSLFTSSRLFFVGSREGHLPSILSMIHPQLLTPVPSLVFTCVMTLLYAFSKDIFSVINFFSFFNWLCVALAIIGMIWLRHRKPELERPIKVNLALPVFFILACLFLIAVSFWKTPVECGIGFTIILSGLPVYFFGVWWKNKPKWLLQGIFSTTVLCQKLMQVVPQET
# assay.summary: Drug uptake in human MCF7 cells assessed as LAT1 mediated drug transport per mg of protein at 100 uM after 30 mins by HPLC analysis
# Type: ADME, cell-based
# condition.set: mcf7, 0.5 h

molecule: NC1(C(=O)O)CC2CCC1C2 (stereo unspecified)
Drug uptake [nmol/mg]: 11.9

###

# target.system: Large neutral amino acids transporter small subunit 1 (Homo sapiens)
# assay.summary: Drug uptake in human MCF7 cells assessed as LAT1 mediated drug transport per mg of protein at 100 uM measured 5 mins after warm wash by HPLC analysis
# Format: ADME, cell-based
# condition.set: mcf7, 5 min

smiles.entry: CNC(=O)COc1ccc(-c2c(C#N)c(NC(=O)c3cccc(C[C@H](N)C(=O)O)c3)n3c(nc4ccccc43)c2C#N)cc1
unit.annotation: nmol/mg
Drug uptake: 1.43
